- Tested on: Trypanosoma cruzi
- protocol: Trypanosoma cruzi phosphomannomutase and mannose-1-phosphate guanylyltransferase assay
- Assay type: functional
- Parameters: scale not given: direction of the effect not stated beside the values
- reported.conditions: 10 µM
observable: Percent Effect (%)
Answers are plain numbers, in %.

// input: 5 molecules below; output: Percent Effect for each
1. O=C(NCC1CC1)C1CCC2(CCN(C(=O)c3ccccn3)CC2)O1 (stereo not given)
2. CCc1nc(CN(C)C2CCN(CCS(C)(=O)=O)C2)no1 (stereo not given)
3. O=C(Nc1nccs1)NC1CCN(Cc2ccccc2)C1 (stereo not given)
4. c1cnn(Cc2nnc3n2CCCN(CC2CCOCC2)C3)c1
5. CCn1ccnc1CN1CCCN(C(=O)Cn2nc(C)cc2C)CC1

Return:
1: -2.44; 2: 0; 3: 7.04; 4: -3.02; 5: 1.08

====

- system.name: Sialic acid-binding Ig-like lectin 9 (Homo sapiens)
- protocol: Hs-Siglec9 ALPHAscreen SOP 20170721
- Design: scale not given: direction of the effect not stated beside the values
- reported.conditions: 10 µM
For each record, write down the corresponding Percent Effect.
Give bare numbers, in %.

Here are 3 compounds. What values of Percent Effect were reported for them?
1. COc1ccc(F)cc1CN1CCCC(c2cc(C(N)=O)[nH]n2)C1 (centres undefined)
2. O=C(O)C1CCCCN1C(=O)c1cccc(C(F)(F)F)c1 (centres undefined)
3. CCOc1ccc(S(=O)(=O)NC(=O)CCC2CCCO2)cc1 (centres undefined)

Return:
1. 5.92
2. 7.67
3. -5.67

Enquiry: Provide only the value of recorded Percent Effect for Cc1cc(=O)n(CC(=O)NCC2CCCO2)c(-c2ccc(F)cc2)n1 (centres undefined)
Return: -2.38

====

- system.name: Arginase-2, mitochondrial (Homo sapiens)
- protocol: in vitro enzyme assay to detect the production of urea directly proportional to the activity of Arginase II; also: in the data most compounds retested in dose-response had high values
- Assay type: functional
- Set-up: scale not given: direction of the effect not stated beside the values
- reported.conditions: 33.3 µM
Give Percent Effect for every item shown.
// unit must come after the numeric part

Known Percent Effect results, listed for orientation:
1) CC(C)(C)c1n[nH]c(C2CN(C(=O)c3csnn3)CCO2)n1 (stereo not drawn) :: 1.18%
2) Cn1cc(NC(=O)N2CCC(NS(C)(=O)=O)CC2)ccc1=O :: 13.9%
3) Cc1cnn(CC2CCN(CC(O)COc3ccc(F)cc3)CC2)c1 (stereo not drawn) :: -5.94%

I'm hoping you can list Percent Effect for every molecule here, please.
1. COc1ccc(OCc2sc(C3(O)CCCNCC3)nc2C)cc1 (stereo not drawn)
2. O=C(NCCNC(=O)c1scnc1Cl)c1ccccc1

Return:
1: 3.48%; 2: -0.887%

// for each molecule below, give its Percent Effect
1. COCCCN(C)C1CCCN(Cc2noc(C)n2)C1 (stereo not drawn)
2. CCc1n[nH]c(C2CN(C(=O)c3nc(C)n4ccccc34)CCO2)n1 (stereo not drawn)
3. Cc1ccc(C(=O)N2C[C@@H](OCC3CCOCC3)[C@H]3OCCC[C@H]32)o1

Return:
1. -0.554%
2. 10%
3. 10.9%

====

- system.name: Sialic acid-binding Ig-like lectin 9 (Homo sapiens) (UniProt Q9Y336)
- Sequence (Q9Y336 whole entry): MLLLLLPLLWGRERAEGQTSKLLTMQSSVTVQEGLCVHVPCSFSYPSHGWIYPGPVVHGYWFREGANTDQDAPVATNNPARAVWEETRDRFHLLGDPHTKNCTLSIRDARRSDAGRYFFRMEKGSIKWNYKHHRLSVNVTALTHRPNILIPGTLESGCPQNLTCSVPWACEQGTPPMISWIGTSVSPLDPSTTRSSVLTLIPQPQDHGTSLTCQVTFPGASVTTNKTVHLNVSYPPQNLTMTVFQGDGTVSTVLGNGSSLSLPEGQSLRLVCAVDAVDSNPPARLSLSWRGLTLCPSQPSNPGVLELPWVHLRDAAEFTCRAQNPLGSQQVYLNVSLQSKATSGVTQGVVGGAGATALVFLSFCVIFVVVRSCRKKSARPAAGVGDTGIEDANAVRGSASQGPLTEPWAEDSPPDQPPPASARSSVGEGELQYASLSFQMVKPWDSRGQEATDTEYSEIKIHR
- protocol: Hs-Siglec9 ALPHAscreen SOP 20170721
- Design: scale not given: direction of the effect not stated beside the values
- reported.conditions: 10 µM
observable: Percent Effect
A bare number is not enough; add the unit after it.

Answered cases to consult:
1. CN(C)C(=O)Cc1nc(CN2CCCCC2Cn2cccn2)cs1 (stereo not drawn) :: -6.24%
2. COc1ccc(CNCc2ccnc(N3CCOCC3)c2)cc1OC :: -6.8%

Please find the next molecule below.
Enquiry: Report value only: Percent Effect, Sialic acid-binding Ig-like lectin 9 (Homo sapiens) (UniProt Q9Y336), Cc1cccc(C)c1OCCC(=O)N1CCC(c2nncn2C)CC1
Return: 8.75%
